system: UniProt Q9Y243
Sequence (Q9Y243 whole entry): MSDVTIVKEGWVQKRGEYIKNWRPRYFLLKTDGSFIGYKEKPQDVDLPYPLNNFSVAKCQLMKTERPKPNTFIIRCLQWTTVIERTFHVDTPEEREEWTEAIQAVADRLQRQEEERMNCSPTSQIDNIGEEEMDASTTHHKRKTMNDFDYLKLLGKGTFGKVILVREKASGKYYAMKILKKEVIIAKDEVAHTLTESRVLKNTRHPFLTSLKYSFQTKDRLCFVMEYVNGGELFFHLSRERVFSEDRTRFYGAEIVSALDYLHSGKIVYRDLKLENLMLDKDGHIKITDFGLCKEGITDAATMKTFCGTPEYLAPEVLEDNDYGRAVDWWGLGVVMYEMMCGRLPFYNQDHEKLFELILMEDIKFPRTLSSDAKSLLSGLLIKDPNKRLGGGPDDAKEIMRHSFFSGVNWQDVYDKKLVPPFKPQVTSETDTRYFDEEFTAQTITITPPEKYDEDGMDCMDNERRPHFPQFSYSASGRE
experiment-notes: AKT Kinase Assay (IMAP fluorescent polarisation) vs AKT3
experimental-setup: activated AKT3, FAM Crosstide substrate
Counter-ions that a name gives are not always drawn.
endpoint-label: IC50

Would you please look over these solved cases?
molecule: NC1(c2ccc(-c3c(-c4ccccc4)oc4c(ccn5c(=O)[nH]nc45)c3=O)cc2)CCC1 [Example 63, hydrochloride]
IC50: ≤ 1 µM
--
molecule: NC1(c2ccc(-c3c(-c4ccccc4)oc4c(-c5cc[nH]n5)cccc4c3=O)cc2)CCC1 [Example 53, hydrochloride]
IC50: 1 to 10 µM

q: Would you kindly share the measured IC50 for NC1(c2ccc(-c3c(-c4ccccc4)oc4cc(Br)ccc4c3=O)cc2)CCC1 ?
a: > 10 µM

q: Which measured IC50 value corresponds to COc1cc2c(=O)c(-c3ccc(C4(N)CCC4)cc3)c(-c3ccccc3)oc2cc1Br ?
a: > 10 µM

q: Given the entry NC1(c2ccc(-c3c(-c4ccccc4)oc4c(-c5cn[nH]c5)cccc4c3=O)cc2)CCC1 [Example 52, hydrochloride] , report its measured IC50.
a: ≤ 1 µM

q: I have this molecule here, N#CCOc1ccc2c(=O)c(-c3ccc(C4(N)CCC4)cc3)c(-c3ccccc3)oc2c1Br , and I need its recorded IC50.
a: 1 to 10 µM

q: If you can, please state the reported IC50 value of Cc1n[nH]cc1-c1cccc2c(=O)c(-c3ccc(C4(N)CCC4)cc3)c(-c3ccccc3)oc12 [Example 73, hydrochloride] .
a: 1 to 10 µM

q: Record request: IC50 value, item COc1cc2c(=O)c(-c3ccc(C4(N)CCC4)cc3)c(-c3ccccc3)oc2cc1C(N)=O
a: > 10 µM

Origin of values: patent US8546376B2
